assayed system: TadA7.10 (Escherichia coli? (laboratory-evolved …, UniProt P68398 1-167, W23R;H36L;P48A;R51L;L84F;A106V;D108N;H123Y;S146C;D147Y;R152P;E155V;I156F;K157N))
method notes: MST; 5 mM Mg2+; MST: 20 mM HEPES pH 7.5, 200 mM KCl, 5 mM MgCl2, 1 mM DTT, 0.05% Tween-20; 100 nM DNA; 120 min at room temperature
measurement parameters: protein: recombinant; tags: N-terminal non-cleavable His6; chain copies: 2; label: 5' 6-FAM; single-stranded
measurement type: pKd
// field semantics: pKd = negative decimal log of concentration (mol/L)

Recall and state the measured pKd for TTCTCTTCCACTTTCTTTT (ssDNA) [19-nt ssDNA (NTS of 6VPC with five bases mutated at either end)] .
6.97
